Measured target: SMARCA4 (Homo sapiens, UniProt P51532)
Construct: SMARCA4-HiBiT knock-in Hela monoclonal cell (CS3023226); host or cells: HeLa monoclonal cells with heterozygous HiBiT knock-in at the endogenous SMARCA4 locus
Sequence (P51532 whole entry): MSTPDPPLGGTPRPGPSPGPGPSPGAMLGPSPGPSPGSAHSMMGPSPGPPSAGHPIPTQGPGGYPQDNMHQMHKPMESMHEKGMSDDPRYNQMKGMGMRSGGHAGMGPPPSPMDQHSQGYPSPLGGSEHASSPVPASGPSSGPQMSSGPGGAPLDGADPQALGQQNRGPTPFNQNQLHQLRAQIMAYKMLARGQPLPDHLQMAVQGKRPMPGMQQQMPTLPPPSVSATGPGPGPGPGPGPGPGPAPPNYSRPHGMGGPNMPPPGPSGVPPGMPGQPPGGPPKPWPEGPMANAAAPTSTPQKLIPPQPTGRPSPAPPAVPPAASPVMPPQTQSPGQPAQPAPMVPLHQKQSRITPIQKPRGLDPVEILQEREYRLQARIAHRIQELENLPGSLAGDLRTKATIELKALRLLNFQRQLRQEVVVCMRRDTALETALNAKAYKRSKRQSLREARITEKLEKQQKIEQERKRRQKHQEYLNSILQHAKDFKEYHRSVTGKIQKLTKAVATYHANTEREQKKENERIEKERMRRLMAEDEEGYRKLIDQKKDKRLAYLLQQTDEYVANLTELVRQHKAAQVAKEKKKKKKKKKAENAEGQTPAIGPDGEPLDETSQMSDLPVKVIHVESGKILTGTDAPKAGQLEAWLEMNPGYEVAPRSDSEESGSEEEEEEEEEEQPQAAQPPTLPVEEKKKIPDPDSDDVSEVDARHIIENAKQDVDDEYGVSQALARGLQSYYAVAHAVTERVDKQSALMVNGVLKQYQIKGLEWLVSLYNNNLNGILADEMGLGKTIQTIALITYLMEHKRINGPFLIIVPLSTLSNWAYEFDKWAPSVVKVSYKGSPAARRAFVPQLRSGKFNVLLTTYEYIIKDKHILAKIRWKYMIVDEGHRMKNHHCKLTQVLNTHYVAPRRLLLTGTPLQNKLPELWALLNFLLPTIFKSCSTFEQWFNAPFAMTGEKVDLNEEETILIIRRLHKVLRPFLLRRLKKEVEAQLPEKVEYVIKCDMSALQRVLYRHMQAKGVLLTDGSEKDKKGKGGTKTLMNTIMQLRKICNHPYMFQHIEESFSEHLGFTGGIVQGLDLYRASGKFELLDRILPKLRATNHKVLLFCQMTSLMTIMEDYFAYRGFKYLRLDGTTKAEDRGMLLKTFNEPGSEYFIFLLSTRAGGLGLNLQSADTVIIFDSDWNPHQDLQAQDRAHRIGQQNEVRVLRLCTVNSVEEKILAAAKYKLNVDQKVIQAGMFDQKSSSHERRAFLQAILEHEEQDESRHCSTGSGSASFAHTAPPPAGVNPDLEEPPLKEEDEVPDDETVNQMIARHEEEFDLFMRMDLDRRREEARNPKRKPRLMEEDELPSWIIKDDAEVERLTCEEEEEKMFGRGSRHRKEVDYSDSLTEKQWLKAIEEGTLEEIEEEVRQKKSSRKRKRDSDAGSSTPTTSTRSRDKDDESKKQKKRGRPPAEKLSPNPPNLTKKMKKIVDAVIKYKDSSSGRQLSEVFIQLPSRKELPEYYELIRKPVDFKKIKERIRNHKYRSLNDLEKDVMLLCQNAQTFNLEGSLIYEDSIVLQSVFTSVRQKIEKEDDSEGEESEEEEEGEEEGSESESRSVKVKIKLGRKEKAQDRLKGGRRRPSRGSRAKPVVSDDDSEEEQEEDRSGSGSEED
Method summary: SMARCA4 HiBiT degradation assay in HeLa cells
Assay type: cell-based
Condition info: 18 hours, highest concentration 10 μM
Test readout: DC50

Compound	Result
O=C1CC[C@H](N2Cc3ccc(N4CCN(Cc5ccc(O[C@H]6CN7c8cc(-c9cccc(F)c9O)nnc8NC[C@@]7(C(F)F)C6)nc5)CC4)cc3C2=O)C(=O)N1	> 1000 nM
CC[C@@]12CNc3nnc(-c4cccc(F)c4O)cc3N1C[C@H](Oc1nc(C)c(CN3CCC(c4ccc5c(c4)C(=O)N([C@H]4CCC(=O)NC4=O)C5)CC3)c(C)n1)C2	> 1000 nM
CC[C@@]12CNc3nnc(-c4cccc(F)c4O)cc3N1C[C@H](Sc1cc(C)c(CN3CCN(c4ccc5c(c4)C(=O)N([C@H]4CCC(=O)NC4=O)C5)CC3)cn1)C2	< 100 nM
C[C@]12CNc3nnc(-c4cccc(F)c4O)cc3N1C[C@H](Oc1cc(C#N)c(CN3CCN(c4ccc5c(c4)C(=O)N([C@H]4CCC(=O)NC4=O)C5)CC3)cn1)C2	< 100 nM
Cc1nc(CN2CCC(c3ccc4c(c3)C(=O)N([C@H]3CCC(=O)NC3=O)C4)CC2)cnc1O[C@H]1CN2c3cc(-c4cccc(F)c4O)nnc3NC[C@]2(C(F)F)C1	< 100 nM
Cc1cc(O[C@@H]2C[C@H]3CNc4nnc(-c5cccc(F)c5O)cc4N3C2)ccc1CN1CCN(c2ccc3c(c2)C(=O)N(C2CCC(=O)NC2=O)C3)CC1 (some centres unmarked)	< 100 nM
Cc1nc(O[C@H]2CN3c4cc(-c5cccc(F)c5O)nnc4NC[C@]3(C(F)F)C2)cnc1CN1CCN(c2ccc3c(c2)C(=O)N(C2CCC(=O)NC2=O)C3)CC1 (some centres unmarked)	> 1000 nM
CCc1cc(CN2CCN(c3ccc4c(c3)C(=O)N([C@H]3CCC(=O)NC3=O)C4)CC2)cnc1O[C@H]1CN2c3cc(-c4cccc(F)c4O)nnc3NC[C@@]2(C(F)F)C1	100 to 1000 nM
Cc1c(CN2CCC(c3ccc4c(c3)C(=O)N([C@H]3CCC(=O)NC3=O)C4)CC2)cnc(O[C@H]2CN3c4cc(-c5cccc(F)c5O)nnc4NC[C@]3(C(F)F)C2)c1F	< 100 nM
COc1cc(O[C@@H]2C[C@@H]3CNc4nnc(-c5cccc(Cl)c5O)cc4N3C2)ccc1CN1CCN(c2ccc3c(c2)C(=O)N(C2CCC(=O)NC2=O)C3)CC1 (some centres unmarked)	< 100 nM
Cc1cc(S[C@@H]2C[C@@H]3CNc4nnc(-c5cc(F)cc(F)c5O)cc4N3C2)ncc1CN1CCN(c2ccc3c(c2)C(=O)N([C@H]2CCC(=O)NC2=O)C3)CC1	> 1000 nM

* * *

Measured target: SMARCA4 (Homo sapiens, UniProt P51532)
Construct: SMARCA4-HiBiT knock-in Hela monoclonal cell (CS3023226); host or cells: HeLa monoclonal cells with heterozygous HiBiT knock-in at the endogenous SMARCA4 locus
Method summary: SMARCA4 HiBiT degradation assay in HeLa cells
Format: cell-based
Condition info: 18 hours, highest concentration 10 μM

Compound	Dmax
Cc1nc(CN2CCN(c3ccc4c(c3)C(=O)N([C@H]3CCC(=O)NC3=O)C4)CC2)cnc1O[C@H]1CN2c3cc(-c4cccc(F)c4O)nnc3NC[C@@]2(CF)C1	< 50%
O=C1CCC(N2Cc3ccc(N4CCN(Cc5ccc(S[C@@H]6C[C@@H]7CNc8nnc(-c9cc(F)cc(F)c9O)cc8N7C6)cc5)CC4)cc3C2=O)C(=O)N1 (some centres unmarked)	50 to 75%
Cc1cc(CN2CCN(c3ccc4c(c3)C(=O)N(C3CCC(=O)NC3=O)C4)CC2)cnc1O[C@@H]1C[C@@H]2CNc3nnc(-c4cc(F)cc(F)c4O)cc3N2C1 (some centres unmarked)	> 75%
O=C1CC[C@H](N2Cc3ccc(N4CCN(Cc5ccc(O[C@H]6CN7c8cc(-c9cccc(F)c9O)nnc8NC[C@]7(C(F)F)C6)cn5)CC4)cc3C2=O)C(=O)N1	< 50%
O=C1CCC(N2Cc3ccc(N4CCN(Cc5ccc(O[C@@H]6C[C@@H]7CNc8nnc(-c9cc(F)cc(F)c9O)cc8N7C6)cc5F)CC4)cc3C2=O)C(=O)N1 (some centres unmarked)	> 75%

* * *

Below is a list of entries, each paired with its recorded DC50 value.
Measured target: SMARCA4 (Homo sapiens, UniProt P51532)
Construct: SMARCA4-HiBiT knock-in Hela monoclonal cell (CS3023226); host or cells: HeLa monoclonal cells with heterozygous HiBiT knock-in at the endogenous SMARCA4 locus
Method summary: SMARCA4 HiBiT degradation assay in HeLa cells
Assay type: cell-based
Condition info: 18 hours, highest concentration 10 μM
Test readout: DC50

Molecule	Test readout	Result
Cc1c(O[C@H]2CN3c4cc(-c5cccc(F)c5O)nnc4NC[C@@]3(C(F)F)C2)cnc(CN2CCN(c3ccc4c(c3)C(=O)N([C@H]3CCC(=O)NC3=O)C4)CC2)c1F [Example 45]	DC50	> 1000 nM
O=C1CCC(N2Cc3ccc(N4CCN(Cc5ccc(O[C@@H]6C[C@@H]7CNc8nnc(-c9cccc(F)c9O)cc8N7C6)cc5)CC4)cc3C2=O)C(=O)N1 (some centres unmarked) [Example 5]	DC50	< 100 nM
Cc1c(O[C@H]2CN3c4cc(-c5cccc(F)c5O)nnc4NC[C@]3(C(F)F)C2)cnc(CN2CCN(c3ccc4c(c3)C(=O)N([C@H]3CCC(=O)NC3=O)C4)CC2)c1C [Example 46]	DC50	< 100 nM
CC[C@@]12CNc3nnc(-c4cccc(C)c4O)cc3N1C[C@H](Oc1cnc(CN3CCC(c4ccc5c(c4)C(=O)N([C@H]4CCC(=O)NC4=O)C5)CC3)c(C)c1C)C2 [Example 95]	DC50	> 1000 nM
CC[C@@]12CNc3nnc(-c4cccc(F)c4O)cc3N1C[C@H](Oc1cnc(CN3CCC(c4ccc5c(c4)C(=O)N([C@H]4CCC(=O)NC4=O)C5)CC3)c(F)c1)C2 [Example 101]	DC50	100 to 1000 nM
O=C1CCC(N2Cc3ccc(N4CCN(Cc5cnc(O[C@H]6CN7c8cc(-c9cccc(F)c9O)nnc8NC[C@@]7(C(F)F)C6)c(Cl)c5)CC4)cc3C2=O)C(=O)N1 (some centres unmarked) [Example 85]	DC50	< 100 nM
Cc1c(CN2CCN(c3ccc4c(c3)C(=O)N([C@H]3CCC(=O)NC3=O)C4)CC2)cnc(O[C@H]2CN3c4cc(-c5cccc(F)c5O)nnc4NC[C@@]3(CF)C2)c1F [Example 71]	DC50	> 1000 nM
C[C@]12CNc3nnc(-c4cccc(F)c4O)cc3N1C[C@H](Oc1cnc(CN3CCN(c4ccc5c(c4)C(=O)N([C@H]4CCC(=O)NC4=O)C5)CC3)cn1)C2 [Example 79]	DC50	< 100 nM
Cc1nc(CN2CCN(c3ccc4c(c3)C(=O)N([C@H]3CCC(=O)NC3=O)C4)CC2)cnc1O[C@H]1CN2c3cc(-c4cccc(F)c4O)nnc3NC[C@@]2(CF)C1 [Example 64]	DC50	100 to 1000 nM
Cc1cc(CN2CCC(c3ccc4c(c3)C(=O)N([C@H]3CCC(=O)NC3=O)C4)CC2)ncc1O[C@H]1CN2c3cc(-c4cccc(C)c4O)nnc3NC[C@]2(C(F)F)C1 [Example 94]	DC50	> 1000 nM
Cc1cc(O[C@H]2CN3c4cc(-c5cccc(F)c5O)nnc4NC[C@@]3(CF)C2)ncc1CN1CCN(c2ccc3c(c2)C(=O)N([C@H]2CCC(=O)NC2=O)C3)CC1 [Example 58]	DC50	> 1000 nM

* * *

Below is a list of entries, each paired with its recorded DC50 value.
Measured target: SMARCA4 (Homo sapiens, UniProt P51532)
Construct: SMARCA4-HiBiT knock-in Hela monoclonal cell (CS3023226); host or cells: HeLa monoclonal cells with heterozygous HiBiT knock-in at the endogenous SMARCA4 locus
Method summary: SMARCA4 HiBiT degradation assay in HeLa cells
Type: cell-based
Condition info: 18 hours, highest concentration 10 μM
Test readout: DC50

Molecule	Measured target	Result
Cc1cc(O[C@@H]2C[C@@H]3CNc4nnc(-c5cc(F)cc(F)c5O)cc4N3C2)ccc1CN1CCN(c2ccc3c(c2)C(=O)N(C2CCC(=O)NC2=O)C3)CC1 (some centres unmarked)	SMARCA4 (Homo sapiens, UniProt P51532)	< 0.1 µM
CC[C@@]12CNc3nnc(-c4cccc(F)c4O)cc3N1C[C@H](Oc1ncc(CN3CCN(c4ccc5c(c4)C(=O)N(C4CCC(=O)NC4=O)C5)CC3)c(C)c1F)C2 (some centres unmarked)	SMARCA4 (Homo sapiens, UniProt P51532)	< 0.1 µM
Cc1nc(CN2CCN(c3ccc4c(c3)C(=O)N(C3CCC(=O)NC3=O)C4)CC2)cnc1O[C@H]1CN2c3cc(-c4cccc(F)c4O)nnc3NC[C@]2(C(F)F)C1 (some centres unmarked)	SMARCA4 (Homo sapiens, UniProt P51532)	0.1 to 1 µM
CC[C@]12CNc3nnc(-c4cccc(F)c4O)cc3N1C[C@H](Oc1cnc(CN3CCC(c4ccc5c(c4)C(=O)N([C@H]4CCC(=O)NC4=O)C5)CC3)c(C)c1)C2	SMARCA4 (Homo sapiens, UniProt P51532)	< 0.1 µM
CCc1nc(CN2CCN(c3ccc4c(c3)C(=O)N([C@H]3CCC(=O)NC3=O)C4)CC2)cnc1O[C@H]1CN2c3cc(-c4cccc(F)c4O)nnc3NC[C@@]2(CF)C1	SMARCA4 (Homo sapiens, UniProt P51532)	> 1 µM
